Data provenance: patent US20210155689A1

Item-by-item account of OD450
- test-target: T1, human LAG-3 protein with hFc tag (hLAG-3-hFc protein) (human, UniProt P18627 23-450)
- T1 construct: also called immunogen 1; LAG-3 extracellular domain protein; not shown: human IgG Fc fragment (hFc) of the pCpC vector
- T1 sequence: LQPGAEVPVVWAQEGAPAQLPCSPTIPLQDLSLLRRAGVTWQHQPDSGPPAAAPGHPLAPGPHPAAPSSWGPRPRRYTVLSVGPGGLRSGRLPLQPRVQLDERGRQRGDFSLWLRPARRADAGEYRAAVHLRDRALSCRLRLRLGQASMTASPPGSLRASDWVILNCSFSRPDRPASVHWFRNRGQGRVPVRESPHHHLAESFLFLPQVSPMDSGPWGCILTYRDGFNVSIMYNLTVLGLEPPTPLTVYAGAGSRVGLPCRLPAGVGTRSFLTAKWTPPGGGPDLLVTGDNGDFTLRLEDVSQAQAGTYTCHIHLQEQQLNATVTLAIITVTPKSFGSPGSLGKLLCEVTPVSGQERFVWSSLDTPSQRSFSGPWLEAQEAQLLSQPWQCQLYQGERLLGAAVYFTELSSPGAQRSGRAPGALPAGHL
- assay-summary: ELISA, hLAG-3-hFc coated; 66.6670 nM

| binder | unit-spec | OD450 |
| --- | --- | --- |
| 409B11E12 (LAG-3 mouse-human chimeric antibody) (antibody, V domains shown) VH: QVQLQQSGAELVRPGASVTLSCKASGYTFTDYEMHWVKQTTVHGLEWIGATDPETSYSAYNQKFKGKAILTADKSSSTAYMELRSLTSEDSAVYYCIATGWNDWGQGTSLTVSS VL: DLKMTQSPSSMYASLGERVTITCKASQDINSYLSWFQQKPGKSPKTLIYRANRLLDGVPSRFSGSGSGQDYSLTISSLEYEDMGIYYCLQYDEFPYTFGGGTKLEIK | OD450 | 3.59 |
| 409D4E10 (LAG-3 mouse-human chimeric antibody) (antibody, V domains shown) VH: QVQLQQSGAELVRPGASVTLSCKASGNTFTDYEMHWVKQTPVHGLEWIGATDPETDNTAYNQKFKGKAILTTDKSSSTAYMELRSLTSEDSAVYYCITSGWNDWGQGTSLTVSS VL: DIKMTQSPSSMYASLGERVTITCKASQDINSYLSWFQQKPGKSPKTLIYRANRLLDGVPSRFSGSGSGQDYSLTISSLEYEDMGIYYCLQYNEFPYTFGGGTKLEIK | OD450 | 3.73 |
| 105F1E10 (LAG-3 mouse-human chimeric antibody) (antibody, V domains shown) VH: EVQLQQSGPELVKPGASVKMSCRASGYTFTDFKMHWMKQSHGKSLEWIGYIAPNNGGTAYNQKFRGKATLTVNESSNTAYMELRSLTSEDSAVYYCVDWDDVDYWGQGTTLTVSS VL: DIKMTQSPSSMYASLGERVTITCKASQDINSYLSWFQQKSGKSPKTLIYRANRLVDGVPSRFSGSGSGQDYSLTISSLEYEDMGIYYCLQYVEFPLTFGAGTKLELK | OD450 | 3.6 |
| 405B8H3 (LAG-3 mouse-human chimeric antibody) (antibody, V domains shown, also called mouse-human chimeric antibody 405B8H3) VH: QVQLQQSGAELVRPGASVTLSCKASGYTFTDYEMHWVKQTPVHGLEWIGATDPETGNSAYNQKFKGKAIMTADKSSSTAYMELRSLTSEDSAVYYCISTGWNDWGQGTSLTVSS VL: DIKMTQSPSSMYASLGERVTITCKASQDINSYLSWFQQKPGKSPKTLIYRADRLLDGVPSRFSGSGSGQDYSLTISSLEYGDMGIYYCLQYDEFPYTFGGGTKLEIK | OD450 | 3.57 |
| 556F6B8 (LAG-3 mouse-human chimeric antibody) (antibody, V domains shown, also called 556F8B8) VH: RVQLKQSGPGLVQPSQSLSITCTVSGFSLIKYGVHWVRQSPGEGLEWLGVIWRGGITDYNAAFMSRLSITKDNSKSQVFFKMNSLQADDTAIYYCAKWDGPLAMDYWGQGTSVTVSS VL: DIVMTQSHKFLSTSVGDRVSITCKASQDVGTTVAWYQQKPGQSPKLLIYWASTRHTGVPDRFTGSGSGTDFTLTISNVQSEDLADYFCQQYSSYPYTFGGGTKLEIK | OD450 | 3.69 |
